Data provenance: patent US12012417B2

system: Dengue 1 virus MY97-10245; assay: High-content imaging cell-based flavivirus immunodetection (HCl-CFI) assay, Dengue 1; details: Dengue virus, A549, 48 h, read-out: Dengue 1 virus MY97-10245 in A549 using HCl [Inhibitor/IC50] Qualified AC50
pEC50: −log10 of the molar value.
Would you kindly list pEC50 for each of these compounds?

compound="N#Cc1c(NC(=O)Cc2ccc(S(N)(=O)=O)s2)sc2c1CN(CC1CCCCC1)CC2 [Example 84]" assay_value="> 7.00"

Could you tell me pEC50 for each of these compounds? They are listed below.
1. CCOc1cc(CC(=O)Nc2sc3c(c2C#N)CN(Cc2cccc(F)c2)CC3)ccc1C(N)=O [Example 89]
2. COc1cc(CC(=O)Nc2sc3c(c2C#N)CN(Cc2cccc(F)c2)CC3)ccc1S(N)(=O)=O [Example 22]
3. N#Cc1c(NC(=O)Cc2ccc(S(N)(=O)=O)cc2)sc2c1CCCN(Cc1cccc(F)c1)C2 [Example 126]
4. CC1Cc2sc(NC(=O)Cc3ccc(S(N)(=O)=O)cc3)c(C#N)c2CN1Cc1cc(F)cc(F)c1 (stereo not shown) [Example 85]

result:
1. 6.00 to 7.00
2. 6.00 to 7.00
3. 6.00 to 7.00
4. 6.00 to 7.00

Could you tell me pEC50 for each of these compounds? They are listed below.
1. CS(=O)(=O)Nc1ccc(CC(=O)Nc2sc3c(c2C#N)CN(CC2CCCCC2)CC3)cc1 [Example 13]
2. COc1ccccc1CN1CCc2c(sc(NC(=O)Cc3ccc(S(N)(=O)=O)cc3)c2C#N)C1 [Example 94]
3. CC1(C)CS(=O)(=O)c2ccc(CC(=O)Nc3sc4c(c3C#N)CN(Cc3cccc(F)c3)C(C)(C)C4)cc21 [Example 80]
4. COc1cc(C#N)cc(CC(=O)Nc2sc3c(c2C#N)CN(Cc2cccc(F)c2)CC3)c1 [Example 38]
5. N#Cc1c(NC(=O)Cc2ccc(S(N)(=O)=O)cc2)sc2c1CN(Cc1cccc(F)c1)CC2 [Example 5]

result:
1. 6.00 to 7.00
2. < 6.00
3. 6.00 to 7.00
4. < 6.00
5. 6.00 to 7.00

Could you tell me pEC50 for each of these compounds? They are listed below.
1. CC(C1CCCCC1)N1CCc2sc(NC(=O)Cc3ccc(S(N)(=O)=O)cc3)c(C#N)c2C1 (stereo not shown) [Example 3]
2. CCC1(CC)Cc2sc(NC(=O)Cc3ccc(S(N)(=O)=O)cc3)c(C#N)c2CN1CC1CCCCC1 [Example 76]
3. COc1cc(CC(=O)Nc2sc3c(c2C#N)CN(CC2CCCCC2)CC3)ccc1S(C)(=O)=O [Example 10]

result:
1. 6.00 to 7.00
2. > 7.00
3. 6.00 to 7.00

###

test system: Dengue 3 virus MY05-34640-WT-C6/36; assay: High-content imaging cell-based flavivirus immunodetection (HCl-CFI) assay, Dengue 3; settings: Dengue virus, A549, 48 h, read-out: Dengue 3 virus MY05-34640-WT-C6/36 in A549 using HCl [Inhibitor/IC50] Qualified AC50
Would you kindly list EC50 for each of these compounds?

Here are 4 compounds together with their reported answers.
compound="CC1Cc2sc(NC(=O)Cc3ccc(S(N)(=O)=O)cc3)c(C#N)c2CN1C(C)c1ccccc1 (single isomer, unassigned)" subject_of_test="Dengue 3 virus MY05-34640-WT-C6/36" assay_value="< 100 nM"
compound=N#Cc1c(NC(=O)Cc2ccc(S(N)(=O)=O)cc2)sc2c1CCN(Cc1c(F)cccc1F)C2 subject_of_test="Dengue 3 virus MY05-34640-WT-C6/36" assay_value="< 100 nM"
compound="CC1(C)Cc2sc(NC(=O)Cc3ccc4c(c3)C(CN)CS4(=O)=O)c(C#N)c2CN1CC1CCCCC1 (stereo not shown)" subject_of_test="Dengue 3 virus MY05-34640-WT-C6/36" assay_value="100 to 1000 nM"
compound=Cc1ccc(CN2CCc3c(sc(NC(=O)Cc4ccc(S(N)(=O)=O)cc4)c3C#N)C2)cc1 subject_of_test="Dengue 3 virus MY05-34640-WT-C6/36" assay_value="100 to 1000 nM"

Could you tell me EC50 for each of these compounds? They are listed below.
1. N#Cc1c(NC(=O)Cc2ccc3c(c2)CCS3(=O)=O)sc2c1CN(CC1CCCCC1)CC2
2. N#Cc1c(NC(=O)Cc2ccc(S(N)(=O)=O)cc2)sc2c1CCN(Cc1ccccc1F)C2
3. COc1cc(C#N)cc(CC(=O)Nc2sc3c(c2C#N)CN(Cc2cccc(F)c2)CC3)c1
4. CCOc1cc(CC(=O)Nc2sc3c(c2C#N)CN(CC2CCCCC2)CC3)ccc1S(N)(=O)=O
5. CC1Cc2c(sc(NC(=O)Cc3ccc(S(N)(=O)=O)cc3)c2C#N)CN1Cc1cccc(F)c1 (stereo not shown)
6. COc1cc(S(N)(=O)=O)ccc1CC(=O)Nc1sc2c(c1C#N)CN(CC1CCCCC1)CC2
7. CC1Cc2sc(NC(=O)Cc3ccc(S(N)(=O)=O)cc3)c(C#N)c2CN1Cc1cccc(F)c1 (stereo not shown)
8. N#Cc1c(NC(=O)Cc2ccc3c(c2)CNS3(=O)=O)sc2c1CN(CC1CCCCC1)CC2

result:
1. < 100 nM
2. 100 to 1000 nM
3. 100 to 1000 nM
4. < 100 nM
5. 100 to 1000 nM
6. < 100 nM
7. < 100 nM
8. < 100 nM

Could you tell me EC50 for each of these compounds? They are listed below.
1. Cc1cccc(CN2CCc3c(sc(NC(=O)Cc4ccc(S(C)(=O)=O)cc4)c3C#N)C2)c1
2. CCOc1cc(CC(=O)Nc2sc3c(c2C#N)CN(Cc2cccc(F)c2)CC3)ccc1C(N)=O
3. COc1cc(CC(=O)Nc2sc3c(c2C#N)CN(Cc2cccc(F)c2)CC3)ccc1S(N)(=O)=O
4. COc1cc(CC(=O)Nc2sc3c(c2C#N)CN(CC2CCCCC2)CC3)ccc1S(C)(=O)=O
5. CC1(C)Cc2sc(NC(=O)Cc3ccc(S(N)(=O)=O)cc3)c(C#N)c2CN1CC1CCCCC1
6. CS(=O)(=O)Cc1ccc(CC(=O)Nc2sc3c(c2C#N)CN(Cc2cccc(F)c2)CC3)cc1
7. N#Cc1c(NC(=O)Cc2ccc(S(N)(=O)=O)cc2)sc2c1CCCN(Cc1cccc(F)c1)C2
8. CCC1(CC)Cc2sc(NC(=O)Cc3ccc(S(N)(=O)=O)cc3)c(C#N)c2CN1CC1CCCCC1

result:
1: 100 to 1000 nM; 2: 100 to 1000 nM; 3: < 100 nM; 4: < 100 nM; 5: < 100 nM; 6: < 100 nM; 7: 100 to 1000 nM; 8: < 100 nM

###

system: Dengue 3 virus MY05-34640-WT-C6/36; test: High-content imaging cell-based flavivirus immunodetection (HCl-CFI) assay, Dengue 3; settings: Dengue virus, A549, 48 h, read-out: Dengue 3 virus MY05-34640-WT-C6/36 in A549 using HCl [Inhibitor/IC50] Qualified AC50
Would you kindly list EC50 for each of these compounds?

Here are 2 compounds together with their reported answers.
compound=CC1(C)Cc2sc(NC(=O)Cc3ccccc3)c(C#N)c2CN1CC1CCCCC1 assay_value="0.1 to 1 µM"
compound="CC1Cc2sc(NC(=O)Cc3ccc(S(C)(=O)=O)cc3)c(C#N)c2CN1Cc1cc(Cl)ccc1Cl (centres unmarked)" assay_value="< 0.1 µM"

Could you tell me EC50 for each of these compounds? They are listed below.
1. N#Cc1c(NC(=O)Cc2ccc(S(N)(=O)=O)c(F)c2)sc2c1CN(Cc1cccc(F)c1)CC2
2. N#Cc1c(NC(=O)Cc2ccc(S(N)(=O)=O)cc2)sc2c1CN(CC1CCCCC1)CC2
3. CC1Cc2sc(NC(=O)Cc3ccc(S(N)(=O)=O)cc3)c(C#N)c2CN1CCc1ccccc1 (centres unmarked)

result:
1. < 0.1 µM
2. < 0.1 µM
3. < 0.1 µM

###

tested on: Dengue 4 virus MY01-22713; assay: High-content imaging cell-based flavivirus immunodetection (HCl-CFI) assay, Dengue 4; conditions: Dengue virus, A549, 48 h, read-out: Dengue 4 virus MY01-22713 in A549 using HCl [Inhibitor/IC50] Qualified AC50, A549 cells, 48 h, viral E protein expression
pEC50: −log10 of the molar value.
Measurement type: pEC50

Here are 5 compounds together with their reported answers.
smiles_structure=N#Cc1c(NC(=O)Cc2ccc(S(N)(=O)=O)cc2)sc2c1CN(Cc1cccc(F)c1)CC2 subject_of_test="Dengue 4 virus MY01-22713" assay_value="> 7.00"
smiles_structure=N#Cc1c(NC(=O)Cc2ccc(S(N)(=O)=O)cc2)sc2c1CCCN(CC1CCCCC1)C2 subject_of_test="Dengue 4 virus MY01-22713" assay_value="6.00 to 7.00"
smiles_structure=N#Cc1c(NC(=O)Cc2ccc(S(N)(=O)=O)cc2)sc2c1CCN(Cc1c(F)cccc1F)C2 subject_of_test="Dengue 4 virus MY01-22713" assay_value="> 7.00"
smiles_structure=N#Cc1c(NC(=O)Cc2ccc(S(N)(=O)=O)cc2)sc2c1CCN(CC1CCCCC1)C2 subject_of_test="Dengue 4 virus MY01-22713" assay_value="> 7.00"
smiles_structure=CN(C)S(=O)(=O)c1ccc(CC(=O)Nc2sc3c(c2C#N)CN(Cc2cccc(F)c2)CC3)cc1 subject_of_test="Dengue 4 virus MY01-22713" assay_value="6.00 to 7.00"

Could you tell me pEC50 for each of these compounds? They are listed below.
1. N#Cc1c(NC(=O)Cc2ccc(S(N)(=O)=O)cc2)sc2c1CN(CC1CCCCC1)CC2
2. N#Cc1c(NC(=O)Cc2ccc(S(N)(=O)=O)cc2)sc2c1CCN(Cc1ccc(F)cc1Cl)C2

result:
1: > 7.00; 2: > 7.00

Could you tell me pEC50 for each of these compounds? They are listed below.
1. CCOc1cc(CC(=O)Nc2sc3c(c2C#N)CN(Cc2cccc(F)c2)CC3)ccc1C(N)=O
2. N#Cc1c(NC(=O)Cc2ccc3c(c2)CNS3(=O)=O)sc2c1CN(Cc1cccc(F)c1)CC2
3. N#Cc1c(NC(=O)Cc2ccc(S(=O)(=O)C(F)F)cc2)sc2c1CN(Cc1cccc(F)c1)CC2

result:
6.00 to 7.00
6.00 to 7.00
6.00 to 7.00
